Where do the numbers come from? From patent US10752596B2.

target: human GLUT9 (Homo sapiens (Human), UniProt Q9NRM0); assay: Evaluation of human GLUT9 inhibitory activity ([14C] uric acid uptake in human GLUT9 expressing HEK293T cells transduced with Uricase/Hyper); assay type: cell-based; conditions: final 300 μM uric acid, 6 min, human GLUT9 stably expressing HEK293T cells, read-out: humans GLUT9 inhibitory activity (IC50 value (μM))
Sequence (Q9NRM0 other isoform, or with tags, fused parts or gaps): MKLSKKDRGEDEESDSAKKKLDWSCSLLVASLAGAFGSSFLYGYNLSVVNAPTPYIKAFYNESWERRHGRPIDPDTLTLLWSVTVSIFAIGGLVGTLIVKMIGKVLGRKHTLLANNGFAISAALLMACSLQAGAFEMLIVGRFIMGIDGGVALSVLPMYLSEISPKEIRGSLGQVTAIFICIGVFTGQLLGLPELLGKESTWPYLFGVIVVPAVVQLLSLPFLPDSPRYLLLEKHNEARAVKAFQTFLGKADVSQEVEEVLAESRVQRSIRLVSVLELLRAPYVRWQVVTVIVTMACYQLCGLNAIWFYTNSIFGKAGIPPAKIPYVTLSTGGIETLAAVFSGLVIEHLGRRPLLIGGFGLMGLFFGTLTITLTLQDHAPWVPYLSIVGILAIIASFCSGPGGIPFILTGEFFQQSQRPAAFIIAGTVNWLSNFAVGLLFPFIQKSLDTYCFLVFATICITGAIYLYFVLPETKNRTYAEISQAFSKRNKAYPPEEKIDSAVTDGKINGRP
Measurement name: IC50 (µM)

Examples with their reported IC50 follow.
CCCCc1cnc(-c2ccc(CCC)cc2)c(-c2ccc(C(=O)O)cc2)n1 [Example 79]: 0.369
CCCCc1cnc(-c2ccc(OC)c(C#N)c2)c(-c2ccc(C(=O)O)cc2)n1 [Example 17]: 0.692
CCCOCc1cnc(-c2ccc(OC)cc2)c(-c2ccc(C(=O)O)cc2)c1 [Example 118]: 0.108
CCCCc1cnc(-c2ccc(OC)c(F)c2)c(-c2ccc(C(=O)O)cc2)n1 [Example 11]: 0.0659
COc1ccc(-c2ncc(CCCOCCO)cc2-c2ccc(C(=O)O)cc2)cc1 [Example 43]: 7.13

P = CCCCc1cnc(-c2cc(Cl)c(OC)c(Cl)c2)c(-c2ccc(C(=O)O)cc2)n1 [Example 65]
Q = COc1c(F)cc(-c2ncc(CC(C)C)nc2-c2ccc(C(=O)O)cc2)cc1F [Example 98]
Decide: P or Q , by lowest recorded IC50. // output: label of the selected item
Q
